# EXPERIMENTAL_TARGET: His6-TEV-PDGFRβ (557-1016) (Homo sapiens (Human), UniProt P09619)
# Sequence (P09619 557-1016): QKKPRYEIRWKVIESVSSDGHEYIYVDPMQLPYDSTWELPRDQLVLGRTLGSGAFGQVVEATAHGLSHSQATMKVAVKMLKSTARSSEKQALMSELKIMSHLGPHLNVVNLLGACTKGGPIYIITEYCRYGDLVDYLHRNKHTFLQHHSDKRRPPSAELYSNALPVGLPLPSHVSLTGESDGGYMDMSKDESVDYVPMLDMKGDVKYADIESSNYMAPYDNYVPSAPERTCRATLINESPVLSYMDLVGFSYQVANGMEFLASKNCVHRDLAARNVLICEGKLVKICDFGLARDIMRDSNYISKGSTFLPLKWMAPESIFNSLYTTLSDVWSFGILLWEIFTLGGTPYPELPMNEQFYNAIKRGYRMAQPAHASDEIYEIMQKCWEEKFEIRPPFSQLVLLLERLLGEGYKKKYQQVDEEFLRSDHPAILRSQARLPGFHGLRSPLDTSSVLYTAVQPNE
REPORTED_METRIC: pIC50
Give bare numbers, as −log10 of the molar value.

- Cc1ncc(C(=O)NCCN2CC3CCC2C3)cc1NC(=O)c1cnn2cc(-c3cn(C)nc3C)sc12 (stereo not shown) [Example 212]: 9.52
- Cc1ncc(C(=O)NCCN2CCCC2)cc1NC(=O)c1cnn2cc(-c3cn(C)nc3C)sc12 [Example 218]: 9.52
- COc1ncccc1-c1cn2ncc(C(=O)Nc3cc(NC(=O)CN4CCC5(CC5)C4)cnc3C)c2s1 [Example 324]: 10.00

# context switch: different molecule, same pIC50
Request: What value of pIC50 on His6-TEV-PDGFRβ (557-1016) (Homo sapiens (Human), UniProt P09619) does Cc1cc(C(=O)NCCN2[C@H](C)CCC[C@@H]2C)sc1NC(=O)c1cnn2cc(-c3cnn(C)c3)sc12 [Example 198] have?
Response: 8.70

###

Kindly supply the reported pIC50 values for the records listed here.
# EXPERIMENTAL_TARGET: Tb-labeled inactive PDGFRβ (Homo sapiens (Human), UniProt P09619)
# Sequence (P09619 33-1106): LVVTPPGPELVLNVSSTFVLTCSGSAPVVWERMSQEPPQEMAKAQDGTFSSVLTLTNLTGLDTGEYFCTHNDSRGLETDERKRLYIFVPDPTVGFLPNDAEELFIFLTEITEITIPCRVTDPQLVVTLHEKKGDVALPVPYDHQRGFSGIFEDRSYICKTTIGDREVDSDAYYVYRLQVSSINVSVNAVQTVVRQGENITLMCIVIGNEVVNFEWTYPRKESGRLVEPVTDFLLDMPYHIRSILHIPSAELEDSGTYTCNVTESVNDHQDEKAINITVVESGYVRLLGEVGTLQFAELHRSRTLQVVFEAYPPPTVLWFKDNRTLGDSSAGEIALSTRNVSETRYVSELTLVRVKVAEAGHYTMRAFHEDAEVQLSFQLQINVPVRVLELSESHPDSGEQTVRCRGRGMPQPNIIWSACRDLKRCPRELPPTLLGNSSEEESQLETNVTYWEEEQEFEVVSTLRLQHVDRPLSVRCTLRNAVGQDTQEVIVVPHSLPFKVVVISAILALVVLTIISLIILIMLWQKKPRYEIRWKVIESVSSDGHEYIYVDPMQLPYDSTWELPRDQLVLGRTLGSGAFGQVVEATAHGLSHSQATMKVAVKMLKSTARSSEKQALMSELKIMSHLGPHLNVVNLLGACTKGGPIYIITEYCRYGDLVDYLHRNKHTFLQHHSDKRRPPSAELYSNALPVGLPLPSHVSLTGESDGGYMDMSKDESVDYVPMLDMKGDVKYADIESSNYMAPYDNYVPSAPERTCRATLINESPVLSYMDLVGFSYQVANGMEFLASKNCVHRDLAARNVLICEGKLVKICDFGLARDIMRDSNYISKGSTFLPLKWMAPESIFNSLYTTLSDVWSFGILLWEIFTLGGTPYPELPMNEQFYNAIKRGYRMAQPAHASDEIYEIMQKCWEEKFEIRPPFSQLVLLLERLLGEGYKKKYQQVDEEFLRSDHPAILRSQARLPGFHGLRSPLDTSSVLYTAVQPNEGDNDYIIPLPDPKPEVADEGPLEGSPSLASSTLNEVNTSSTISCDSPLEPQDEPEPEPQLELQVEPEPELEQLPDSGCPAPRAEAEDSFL
# PROCEDURE_DETAILS: PDGFRβ LanthaScreen Assay
# Type: binding
# TEST_CONTEXT: read-out: PDGFR Lantha IC50
Numbers only, as −log10 of the molar value.

Study these solved cases before continuing.
* COc1ccncc1-c1cn2ncc(C(=O)Nc3cc(NC(=O)CN4CC(C)(C)C4)cnc3C)c2s1 | 8.77
* Cc1ncc(NC(=O)CN2CC(C)(C)C2)cc1NC(=O)c1cnn2cc(-c3cnn4c3OCCC4)sc12 | 8.72
* Cc1ncc(NC(=O)CN(C)C2CCOCC2)cc1NC(=O)c1cnn2cc(-c3cnn(CC#N)c3)sc12 | 8.22

Hi team, please reply with pIC50 for each item in this list.
1. COC/C=C/c1cn2ncc(C(=O)Nc3cc(NC(=O)CN4C[C@H](C)O[C@@H](C)C4)cnc3C)c2s1 (relative stereo)
2. Cc1ncc(C(=O)NCCN2CCC(F)(F)CC2)cc1NC(=O)c1cnn2cc(-c3cccnc3)sc12
3. Cc1ncc(NC(=O)CN2CCC[C@@H]2C)cc1NC(=O)c1cnn2cc(-c3cnn4c3CCC4)sc12
4. Cc1ncc(NC(=O)CCC2CCCN2C)cc1NC(=O)c1cnn2cc(-c3cnn(C)c3)sc12 (stereo not drawn)
5. CC(=O)Nc1cc(-c2cn3ncc(C(=O)Nc4cc(NC(=O)CN5CC(C)(C)C5)cnc4C)c3s2)ccn1

Response:
1. 7.76
2. 8.23
3. 8.80
4. 7.82
5. 8.44

###

# EXPERIMENTAL_TARGET: UniProt Q05030
# PROCEDURE_DETAILS: PDGFRβ Cellular Assay (PDGFRb P-Y751 HTRF in A10 cells stimulated with PDGF-BB)
# Assay type: cell-based
# TEST_CONTEXT: read-out: PDGFR Cellular IC50
REPORTED_METRIC: IC50

Worked cases, IC50 given:
• Cc1ncc(NC(=O)NCCN2CCCC2(C)C)cc1NC(=O)c1cnn2cc(-c3cnn(C)c3)sc12 = 3000 nM
• Cc1ncc(C(=O)NCCN2CCCC23CCC3)cc1NC(=O)c1cnn2cc(-c3cnn4c3CCC4)sc12 = 2.1 nM
• COCCn1cc(-c2cn3ncc(C(=O)Nc4cc(NC(=O)CCN5CC6CCC5CC6)cnc4C)c3s2)cn1 = 33.4 nM

Request: GET /values?readout=IC50&item= `Cc1ncc(NC(=O)CN2CC(C)(C)C2)cc1NC(=O)c1cnn2cc(-c3ccsc3)sc12`
Response: 0.9 nM

###

Please provide measured IC50 for the entries that follow.
# EXPERIMENTAL_TARGET: PDGFRβ (Rattus norvegicus (Rat), UniProt Q05030)
# Sequence (Q05030 32-1097): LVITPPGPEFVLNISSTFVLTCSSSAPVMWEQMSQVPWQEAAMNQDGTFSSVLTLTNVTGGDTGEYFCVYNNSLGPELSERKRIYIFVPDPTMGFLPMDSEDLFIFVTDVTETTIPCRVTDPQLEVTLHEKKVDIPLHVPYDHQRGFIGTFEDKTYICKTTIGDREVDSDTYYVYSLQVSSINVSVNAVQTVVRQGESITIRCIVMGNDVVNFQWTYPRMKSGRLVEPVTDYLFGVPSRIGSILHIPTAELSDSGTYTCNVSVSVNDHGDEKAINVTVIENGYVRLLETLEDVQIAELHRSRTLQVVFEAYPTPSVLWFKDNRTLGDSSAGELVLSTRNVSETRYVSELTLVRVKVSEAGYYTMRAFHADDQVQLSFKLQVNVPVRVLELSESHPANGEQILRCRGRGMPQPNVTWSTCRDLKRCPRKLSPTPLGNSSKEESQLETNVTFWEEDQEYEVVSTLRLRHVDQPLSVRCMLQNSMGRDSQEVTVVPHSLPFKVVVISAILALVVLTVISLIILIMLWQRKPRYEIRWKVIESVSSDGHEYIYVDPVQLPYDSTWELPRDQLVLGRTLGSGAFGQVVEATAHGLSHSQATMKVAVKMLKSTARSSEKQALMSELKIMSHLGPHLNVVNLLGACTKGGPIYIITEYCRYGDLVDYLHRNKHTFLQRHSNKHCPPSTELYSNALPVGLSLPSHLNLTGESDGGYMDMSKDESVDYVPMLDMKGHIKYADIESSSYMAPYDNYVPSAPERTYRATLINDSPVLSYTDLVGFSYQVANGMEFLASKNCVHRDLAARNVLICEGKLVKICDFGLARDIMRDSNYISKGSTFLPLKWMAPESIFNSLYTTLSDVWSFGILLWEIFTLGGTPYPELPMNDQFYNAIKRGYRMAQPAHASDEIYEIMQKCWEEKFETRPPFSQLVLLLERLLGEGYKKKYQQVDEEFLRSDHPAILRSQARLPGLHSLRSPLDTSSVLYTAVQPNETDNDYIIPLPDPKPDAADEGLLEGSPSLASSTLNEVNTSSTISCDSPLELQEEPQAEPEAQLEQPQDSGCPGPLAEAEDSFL
# PROCEDURE_DETAILS: PDGFRβ Cellular Assay (PDGFRb P-Y751 HTRF in A10 cells stimulated with PDGF-BB)
# Format: cell-based
# TEST_CONTEXT: read-out: PDGFR Cellular IC50
Give bare numbers, in nM.

Examples with their reported IC50 follow.
* CNC(=O)Cn1cc(-c2cn3ncc(C(=O)Nc4cc(NC(=O)CN5CC(C)(C)C5)cnc4C)c3s2)cn1 | 134
* Cc1ncc(NC(=O)CN2CC(C)(C)C2)cc1NC(=O)c1cnn2cc(-c3cnn4c3OCCC4)sc12 | 2
* COCCn1cc(-c2cn3ncc(C(=O)Nc4cc(NC(=O)CN5CCC5C(C)C)cnc4C)c3s2)cn1 (stereo not drawn) | 4.4

Please report IC50 for every entry that follows.
1. Cc1ncc(NC(=O)CCN2CCCC2(C)C)cc1NC(=O)c1cnn2cc(-c3cnn(C)c3)sc12 [Example 10]
2. Cc1ncc(NC(=O)CN2CC(C)(C)C2)cc1NC(=O)c1cnn2cc(-c3cnn(CC4COC4)c3)sc12
3. Cc1ncc(NC(=O)OC[C@@H]2CCCN2C)cc1NC(=O)c1cnn2cc(-c3cc[nH]c3)sc12
4. CCCNCC(=O)Nc1cnc(C)c(NC(=O)c2cnn3cc(-c4cnn5c4CCC5)sc23)c1
5. Cc1ncc(C(=O)NCCN2CCCC2(C)C)cc1NC(=O)c1cnn2cc(-c3cnn4c3OCCC4)sc12
6. Cc1ncc(NC(=O)CN2CCc3ncsc3C2)cc1NC(=O)c1cnn2cc(-c3cnn(C)c3)sc12
7. COC1CN(CC(=O)Nc2cnc(C)c(NC(=O)c3cnn4cc(-c5cn(C)nc5C)sc34)c2)C1

Response:
1: 5.2; 2: 13.9; 3: 48.7; 4: 11; 5: 13.4; 6: 52.9; 7: 30.5

###

# EXPERIMENTAL_TARGET: His6-TEV-PDGFRβ (557-1016) (Homo sapiens (Human))
REPORTED_METRIC: pIC50
Give bare numbers, as −log10 of the molar value.

Previously resolved entries follow.
- Cc1ncc(NC(=O)C[C@@H]2CCN(C(C)C)C2)cc1NC(=O)c1cnn2cc(-c3cnn(C)c3)sc12: 8.28
- CC(=O)Nc1cncc(-c2cn3ncc(C(=O)Nc4cc(C(=O)NCCN5CC6CCC5CC6)cnc4C)c3s2)c1: 9.10
- Cc1ncc(NC(=O)CN2CCc3c(cnn3C)C2)cc1NC(=O)c1cnn2cc(-c3cnn(C)c3)sc12: 9.00

Give pIC50 for each of the items listed below.
1. Cc1ncc(C(=O)NCCN2CCCC2)cc1NC(=O)c1cnn2cc(-c3cnn(CCC(O)CO)c3)sc12 (stereo not shown)
2. Cc1ncc(C(=O)NCCN2CCC(F)(F)C2)cc1NC(=O)c1cnn2cc(-c3cnn(C)c3)sc12
3. CC[C@@H]1COCCN1CC(=O)Nc1cnc(C)c(NC(=O)c2cnn3cc(-c4cnn(C)c4)sc23)c1
4. Cc1ncc(NC(=O)CNC2(C)CCC2)cc1NC(=O)c1cnn2cc(-c3cnn4c3OCCC4)sc12

Response:
1. 9.15
2. 9.40
3. 9.30
4. 9.52

###

# EXPERIMENTAL_TARGET: His6-TEV-PDGFRβ (557-1016) (Homo sapiens (Human))
pIC50: −log10 of the molar value.
Decide using pIC50: a value greater than or equal to 9 is True, a smaller one is False.

Request: Textbook exercise: given the entry `Cc1ncc(C(=O)NCCN2CCCC2(C)C)cc1NC(=O)c1cnn2cc(-c3cncc(S(C)(=O)=O)c3)sc12` , state whether its pIC50 is greater than or equal to 9.
Response: False

Request: Is the recorded value of pIC50 equal to or greater than 9 for this molecule? `Cc1ncc(C(=O)NCCN2CCCC23CCC3)cc1NC(=O)c1cnn2cc(-c3cnn(C)c3C)sc12`
Response: True

Request: Say whether `Cc1ncc(NC(=O)CN2CC(C)(C)C2)cc1NC(=O)c1cnn2cc(-c3cn(C)nc3C)sc12` shows pIC50 of 9 or more.
Response: True

Request: pIC50 >= 9 for `Cc1ncc(NC(=O)OC[C@@H]2CCCN2C(C)C)cc1NC(=O)c1cnn2cc(-c3cnn(C)c3)sc12` ?
Response: True

###

# EXPERIMENTAL_TARGET: VEGFR2, unphosphorylated (Homo sapiens (Human))
# Sequence (P35968 20-1356): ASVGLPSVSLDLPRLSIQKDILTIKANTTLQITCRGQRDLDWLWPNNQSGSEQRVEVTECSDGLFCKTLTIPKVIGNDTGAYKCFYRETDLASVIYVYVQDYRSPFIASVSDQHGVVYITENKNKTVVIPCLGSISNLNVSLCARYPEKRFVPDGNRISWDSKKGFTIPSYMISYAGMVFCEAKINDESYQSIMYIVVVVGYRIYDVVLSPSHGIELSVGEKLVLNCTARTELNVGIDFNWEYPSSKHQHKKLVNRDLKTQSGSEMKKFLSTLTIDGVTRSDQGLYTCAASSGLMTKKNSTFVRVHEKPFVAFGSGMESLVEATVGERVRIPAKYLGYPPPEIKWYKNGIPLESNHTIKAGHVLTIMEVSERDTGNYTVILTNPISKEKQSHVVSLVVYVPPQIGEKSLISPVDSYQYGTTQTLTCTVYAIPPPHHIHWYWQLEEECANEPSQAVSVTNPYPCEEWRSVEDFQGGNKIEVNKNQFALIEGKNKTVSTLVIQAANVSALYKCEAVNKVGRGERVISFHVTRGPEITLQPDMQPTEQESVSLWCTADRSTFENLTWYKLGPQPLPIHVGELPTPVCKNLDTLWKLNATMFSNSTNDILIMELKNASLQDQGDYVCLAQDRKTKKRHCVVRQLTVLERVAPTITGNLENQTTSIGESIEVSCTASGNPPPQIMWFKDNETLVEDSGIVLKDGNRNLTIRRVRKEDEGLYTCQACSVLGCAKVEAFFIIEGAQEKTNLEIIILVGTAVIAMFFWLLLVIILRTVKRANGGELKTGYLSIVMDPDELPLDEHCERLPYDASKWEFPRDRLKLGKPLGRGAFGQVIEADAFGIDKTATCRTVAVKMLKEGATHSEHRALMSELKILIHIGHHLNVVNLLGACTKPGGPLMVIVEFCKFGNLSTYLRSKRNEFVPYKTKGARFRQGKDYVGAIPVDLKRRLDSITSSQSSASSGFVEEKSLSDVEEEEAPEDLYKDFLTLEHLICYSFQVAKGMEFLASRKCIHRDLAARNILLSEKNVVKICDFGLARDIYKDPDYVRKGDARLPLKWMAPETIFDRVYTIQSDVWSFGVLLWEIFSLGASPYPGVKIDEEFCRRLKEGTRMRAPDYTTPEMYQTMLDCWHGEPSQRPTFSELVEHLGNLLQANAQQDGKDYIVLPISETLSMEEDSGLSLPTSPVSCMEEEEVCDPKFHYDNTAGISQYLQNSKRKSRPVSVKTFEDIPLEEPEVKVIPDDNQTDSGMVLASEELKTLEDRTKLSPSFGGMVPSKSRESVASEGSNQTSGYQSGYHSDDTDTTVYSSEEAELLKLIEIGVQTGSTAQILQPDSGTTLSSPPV
# PROCEDURE_DETAILS: VEGFR ADP GLO Assay
Give measured IC50 for each item. Keep answers brief.

Use these answered entries as a reference point.
- CC[C@H]1COCCN1CC(=O)Nc1cnc(C)c(NC(=O)c2cnn3cc(-c4cnn(C)c4)sc23)c1 [Example 70]: > 7.5 µM
- Cc1ncc(NC(=O)CN2CCCC2(C)C)cc1NC(=O)c1cnn2cc(-c3cnn(C(C)(C)CO)c3)sc12 [Example 457]: > 7.5 µM
- Cc1ncc(NC(=O)C[C@@H]2CCCCN2C(C)C)cc1NC(=O)c1cnn2cc(-c3cnn(C)c3)sc12 [Example 305]: > 7.5 µM
- Cc1ncc(NC(=O)CNCC2CC2)cc1NC(=O)c1cnn2cc(-c3cnn4c3OCCC4)sc12 [Example 453]: > 7.5 µM
- Cc1ncc(NC(=O)CN2CCc3ncsc3C2)cc1NC(=O)c1cnn2cc(-c3cnn(C)c3)sc12 [Example 58]: > 7.5 µM

Please go through the list and note IC50 for each compound.
1. Cc1ncc(NC(=O)CN2CC(C)(C)C2)cc1NC(=O)c1cnn2cc(-c3cnc4[nH]ncc4c3)sc12 [Example 288]
2. Cc1ncc(NC(=O)CN2CC(C)(C)C2)cc1NC(=O)c1cnn2cc(-c3cnn(-c4cccnc4)c3)sc12 [Example 289]
3. Cc1ncc(NC(=O)C2CCN(C(C)C)C2)cc1NC(=O)c1cnn2cc(-c3cnn4c3OCCC4)sc12 (stereo not shown) [Example 350]
4. Cc1ncc(NC(=O)CN2CC(C)(C)C2)cc1NC(=O)c1cnn2cc(-c3cnn(C4CCS(=O)(=O)CC4)c3)sc12 [Example 280]
5. Cc1ncc(C(=O)NCCN2CCCC23CCC3)cc1NC(=O)c1cnn2cc(-c3cnn(C)c3)sc12 [Example 3]

Response:
["> 2.5 µM", "> 7.5 µM", "6.35 µM", "> 7.5 µM", "6.98 µM"]

Give me IC50 for each of these compounds, listed below.
1. Cc1ncc(NC(=O)CN2CCCCCC2)cc1NC(=O)c1cnn2cc(-c3cnn4c3OCCC4)sc12 [Example 420]
2. Cc1ncc(NC(=O)CN2CCC[C@H]2C)cc1NC(=O)c1cnn2cc(-c3cn(C)nc3C)sc12 [Example 440]
3. Cc1ncc(C(=O)NCCN2CCC3(CC3)C2)cc1NC(=O)c1cnn2cc(-c3ccccn3)sc12 [Example 160]
4. Cc1ncc(NC(=O)[C@@H]2C[C@H](C)CN2C)cc1NC(=O)c1cnn2cc(-c3cccnc3O)sc12 [Example 316]
5. COCCn1cc(-c2cn3ncc(C(=O)Nc4cc(NC(=O)CN5CCC[C@H]5C)cnc4C)c3s2)cn1 [Example 330]
6. Cc1ncc(NC(=O)CN2CC(C)(C)C2)cc1NC(=O)c1cnn2cc(-c3cnn(CCO)c3)sc12 [Example 290]
7. Cc1ncc(C(=O)NCCN2CCCC23CC3)cc1NC(=O)c1cnn2cc(-c3cnn(C)c3)sc12 [Example 2]

Response:
["> 7.5 µM", "> 7.5 µM", "> 7.5 µM", "> 7.5 µM", "> 7.5 µM", "> 7.5 µM", "> 7.5 µM"]

Look at each compound and report its IC50.
1. COc1ncccc1-c1cn2ncc(C(=O)Nc3cc(C(=O)NCCN4CCCC4C)cnc3C)c2s1 (stereo not shown) [Example 228]
2. COCCn1cc(-c2cn3ncc(C(=O)Nc4cc(NC(=O)CN5CCCC5)cnc4C)c3s2)cn1 [Example 337]
3. Cc1ncc(C(=O)NCCN2CC3CC(C3)C2)cc1NC(=O)c1cnn2cc(-c3cnn(C)c3)sc12 [Example 5]
4. COc1ncccc1-c1cn2ncc(C(=O)Nc3cc(C(=O)NCCN4CCCC4(C)C)cnc3C)c2s1 [Example 226]
5. Cc1ncc(C(=O)NCCN2CCC3(CCC3)C2)cc1NC(=O)c1cnn2cc(-c3cnn(C)c3)sc12 [Example 113]

Response:
1. > 0.833 µM
2. > 7.5 µM
3. > 7.5 µM
4. > 2.5 µM
5. > 7.5 µM
